Measured Ki, listed per entry.
system_tested: Substance-P receptor (Homo sapiens, UniProt P25103)
Sequence (P25103 whole entry): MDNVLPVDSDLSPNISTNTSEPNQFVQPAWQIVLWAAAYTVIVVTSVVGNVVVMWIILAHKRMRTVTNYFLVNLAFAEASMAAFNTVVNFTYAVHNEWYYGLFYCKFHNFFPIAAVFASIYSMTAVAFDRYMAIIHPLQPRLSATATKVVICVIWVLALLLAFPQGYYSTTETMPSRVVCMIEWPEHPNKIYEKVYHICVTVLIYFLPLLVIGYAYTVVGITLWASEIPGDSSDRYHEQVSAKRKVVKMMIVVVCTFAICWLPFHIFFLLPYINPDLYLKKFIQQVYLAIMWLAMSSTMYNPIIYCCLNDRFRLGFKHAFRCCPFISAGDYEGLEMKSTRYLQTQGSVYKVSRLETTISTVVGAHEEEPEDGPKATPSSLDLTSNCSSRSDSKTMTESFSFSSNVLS
readout_type: Ki (nM)

C=CCC1CCCN(CC2CCN(CCC(/C(COCc3cc(C(F)(F)F)cc(C(F)(F)F)c3)=N/OC)c3ccc(Cl)c(Cl)c3)CC2)C1=O (stereo unspecified) | 13
CO/N=C(\COCc1cc(C(F)(F)F)cc(C(F)(F)F)c1)C(CCN1CCC(CN2CCCC(C(N)=O)C2)CC1)c1ccc(Cl)c(Cl)c1 (stereo unspecified) | 25
CO/N=C(\COCc1cc(C(F)(F)F)cc(C(F)(F)F)c1)C(CCN1CCC(CN2CCCC(CO)C2)CC1)c1ccc(Cl)c(Cl)c1 (stereo unspecified) | 50
CCOC(=O)C1CCCN(C2CCN(CCC(/C(COCc3cc(C(F)(F)F)cc(C(F)(F)F)c3)=N/OC)c3ccc(Cl)c(Cl)c3)CC2)C1 (stereo unspecified) | 117
CO/N=C(\COCc1cc(C(F)(F)F)cc(C(F)(F)F)c1)C(CCN1CCC(CN2CCOCC2)CC1)c1ccc(Cl)c(Cl)c1 (stereo unspecified) | 14
CCOC(=O)C1CCCN(CC2CCN(CCC(/C(COCc3cc(C(F)(F)F)cc(C(F)(F)F)c3)=N/OC)c3ccc(Cl)c(Cl)c3)CC2)C1 (stereo unspecified) | 16

---

Here, each record is paired with measured Ki data.
Target chain: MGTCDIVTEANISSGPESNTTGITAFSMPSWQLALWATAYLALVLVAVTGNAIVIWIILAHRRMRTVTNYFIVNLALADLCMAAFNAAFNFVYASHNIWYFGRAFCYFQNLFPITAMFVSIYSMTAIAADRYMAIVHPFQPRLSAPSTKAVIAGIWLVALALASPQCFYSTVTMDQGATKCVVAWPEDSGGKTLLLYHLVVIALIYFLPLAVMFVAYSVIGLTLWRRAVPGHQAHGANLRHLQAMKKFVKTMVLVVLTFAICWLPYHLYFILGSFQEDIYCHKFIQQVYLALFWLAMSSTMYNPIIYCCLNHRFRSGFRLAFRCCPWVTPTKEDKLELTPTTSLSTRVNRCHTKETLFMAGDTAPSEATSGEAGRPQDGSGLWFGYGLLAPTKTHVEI
readout_type: Ki (nM)

CO/N=C(\COCc1cc(C(F)(F)F)cc(C(F)(F)F)c1)C(CCN1CCC(CN2CCCC2=O)CC1)c1ccc(Cl)c(Cl)c1 (stereo unspecified) | 21
CO/N=C(\COCc1cc(C(F)(F)F)cc(C(F)(F)F)c1)C(CCN1CCC(C(=O)N2CCCC2)CC1)c1ccc(Cl)c(Cl)c1 (stereo unspecified) | 59
CO/N=C(\COCc1cc(C(F)(F)F)cc(C(F)(F)F)c1)C(CCN1CCC(N2CCCC2=O)CC1)c1ccc(Cl)c(Cl)c1 (stereo unspecified) | 7
CCOC(=O)C1CCCN(CC2CCN(CCC(/C(COCc3cc(C(F)(F)F)cc(C(F)(F)F)c3)=N/OC)c3ccc(Cl)c(Cl)c3)CC2)C1 (stereo unspecified) | 28
CO/N=C(\COCc1cc(C(F)(F)F)cc(C(F)(F)F)c1)C(CCN1CCC(CN2CCOCC2)CC1)c1ccc(Cl)c(Cl)c1 (stereo unspecified) | 39
CO/N=C(\COCc1cc(C(F)(F)F)cc(C(F)(F)F)c1)C(CCN1CCC(N2CCCC2)CC1)c1ccc(Cl)c(Cl)c1 (stereo unspecified) | 195
